Tested on: G. duodenalis BRIS/91/HEPU/1279
assay-notes: Primary Giardia screen at 10 µM (live-cell imaging, automated counting)
Assay type: cell-based, Giardia duodenalis
measurement-context: 48 h, first singlicate assay
Bucketed by reported % Inhibition n=1 48h, buckets being low end (below 2%), middle (2% to below 10%), high end (10% or more)

Consider the following illustrative entries.
>  <molecule>
O=C(Nc1ccc2nc(N3CCCN(c4ncccn4)CC3)cc(C(=O)O)c2c1)c1ccccc1F [SN00790270]

>  <assigned-category>
low end

$$$$
>  <molecule>
c1cnc(-c2nnc(C3CCCNC3)[nH]2)cn1 (stereo not shown) [SN00802129]

>  <assigned-category>
middle

$$$$
>  <molecule>
O=C(NCc1ccc(F)cc1)N1CCCCC1c1nc(-c2ccccc2)no1 (stereo not shown) [SN00772110]

>  <assigned-category>
low end

$$$$
>  <molecule>
Cc1cccc(C(=O)Nc2cnc(N3CCNCC3)c(C(=O)N(CC(C)C)CC(C)C)c2)c1 [SN00795320]

>  <assigned-category>
high end

$$$$
>  <molecule>
Cc1cc(Cl)ccc1OCCCC(=O)Nc1nc2ccccc2[nH]1 [SN00783684]

>  <assigned-category>
high end

$$$$
>  <molecule>
Cn1cnc2cc(-c3noc(C4CCCO4)n3)ccc21 (stereo not shown) [SN00793699]

>  <assigned-category>
high end

$$$$
>  <molecule>
O=C(C1CCN(S(=O)(=O)c2ccccc2)CC1)N1CC=C(c2ccccc2)CC1 [SN00769994]

>  <assigned-category>
low end

$$$$
>  <molecule>
O=C(NC1CC1)c1cnn2c(-c3ccccn3)ccnc12 [SN00795482]

>  <assigned-category>
low end

$$$$
>  <molecule>
Cc1nc(-c2ccc(C(=O)N3CCCC3C(=O)Nc3ccc(C)c(Cl)c3)cc2)no1 (stereo not shown) [SN00793320]

>  <assigned-category>
high end

$$$$
>  <molecule>
C=C(C)CN1Cc2ccccc2CC1c1nnc(CC)o1 (stereo not shown) [SN00783147]

>  <assigned-category>
low end

$$$$

Input line: Record Cc1ncc2c(n1)CN(C(C)c1nnc(-c3ccccc3)o1)CC2 (stereo not shown) [SN00807918] — which class?
Output line: high end

Input line: Could you place COc1ccc(Nc2cc(C)nc(N3CCN(C(=O)c4ccccc4)CC3)n2)cc1 [SN00793485] in its proper category? Many thanks.
Output line: high end

Input line: Which of the defined bands does the recorded % Inhibition n=1 48h of Cc1noc(CN2C(=O)NC(C)(c3ccccc3)C2=O)n1 (stereo not shown) [SN00774045] sit within?
Output line: low end

Input line: Class for NC1=C(c2nc3ccccc3s2)CC(=O)N1C1CC1 [SN00776353] ?
Output line: low end

Input line: Please let me know in which category the item O=C(c1ccc2nncn2c1)N1CCc2[nH]nc(C(F)(F)F)c2C1 [SN00779777] belongs.
Output line: middle

Input line: Which % Inhibition n=1 48h category applies to CCN1c2cc(C)ccc2-n2cccc2C12CCN(S(=O)(=O)c1ccc(C)cc1)CC2 [SN00785371] here?
Output line: high end
